The measured values listed here are drawn from ChEMBL document CHEMBL3351814.

# TEST_SYSTEM: Neuromedin-U receptor 2 (Homo sapiens, UniProt Q9GZQ4)
# Sequence (Q9GZQ4 whole entry): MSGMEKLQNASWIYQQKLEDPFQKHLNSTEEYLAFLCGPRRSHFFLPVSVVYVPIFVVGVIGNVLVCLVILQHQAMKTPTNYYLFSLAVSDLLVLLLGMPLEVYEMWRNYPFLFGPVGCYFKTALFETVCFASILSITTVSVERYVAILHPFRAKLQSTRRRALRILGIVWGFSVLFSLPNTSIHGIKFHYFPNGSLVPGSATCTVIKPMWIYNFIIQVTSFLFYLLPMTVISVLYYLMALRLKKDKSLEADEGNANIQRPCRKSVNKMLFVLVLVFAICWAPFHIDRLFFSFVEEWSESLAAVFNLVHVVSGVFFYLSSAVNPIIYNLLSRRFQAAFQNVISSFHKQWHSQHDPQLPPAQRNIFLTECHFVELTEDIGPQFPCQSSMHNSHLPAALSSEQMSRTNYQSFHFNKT
# ASSAY_METHOD_TEXT: Agonist activity at human NMUR2 expressed in HEK293 cells at 1 to 100 nM by calcium mobilization assay relative to NMU
# Assay type: functional, cell-based
Calls of active or inactive are those of the source. The calls are words filed in the database; no cut-off is given here. Where a SMILES comes first, the peptide text is derived from it. [ ]: non-standard residue; d: D form. The star is where a group is joined. Propanoyl(3-cHex) = O=C(CCC1CCCCC1)*; Hydrocinnamoyl = O=C(CCc1ccccc1)*; Agb = N=C(N)NCC[C@H](N)C(=O)O
Please state which outcome applies, choosing from Y for active, N for inactive

Some solved cases for reference:
COMPOUND	CATEGORY_LABEL
CC(C)C[C@H](NC(=O)CCc1ccccc1)C(=O)N[C@@H](Cc1ccc(O)cc1)C(=O)N[C@@H](CCCNC(=N)N)C(=O)N1CCC[C@H]1C(=O)N[C@@H](CCCNC(=N)N)C(=O)N[C@@H](CC(N)=O)C(N)=O (Hydrocinnamoyl-LYRPRN-NH2)	N
CC(C)C[C@H](NC(=O)CCC1CCCCC1)C(=O)N[C@@H](Cc1ccccc1)C(=O)N[C@@H](CCCNC(=N)N)C(=O)N1CCC[C@H]1C(=O)N[C@@H](CCCNC(=N)N)C(=O)N[C@@H](CC(N)=O)C(N)=O ({Propanoyl(3-cHex)}-LFRPRN-NH2)	Y

Turning now to a further record.
Write down the call the test reported for this compound. Item: CC(C)C[C@H](NC(=O)CCc1ccccc1)C(=O)N[C@@H](Cc1ccccc1)C(=O)N[C@@H](CCNC(=N)N)C(=O)N1CCC[C@H]1C(=O)N[C@@H](CCCNC(=N)N)C(=O)N[C@@H](CC(N)=O)C(N)=O (Hydrocinnamoyl-LF[Agb]PRN-NH2)
Y

====

# TEST_SYSTEM: Neuromedin-U receptor 1 (Homo sapiens)
# ASSAY_METHOD_TEXT: Agonist activity at human NMUR1 expressed in HEK293 cells at 1 to 100 nM by calcium mobilization assay relative to NMU
# Assay type: functional, cell-based
Activity calls are given as the source filed them. The calls are words filed in the database; no cut-off is given here. Where a SMILES comes first, the peptide text is derived from it. [ ]: non-standard residue; d: D form. The star is where a group is joined. Propanoyl(3-(3-pyridyl)) = O=C(CCc1cccnc1)*; 1Nal = N[C@@H](Cc1cccc2ccccc12)C(=O)O; Acetyl(4-pyridyl) = O=C(Cc1ccncc1)*; Hydrocinnamoyl = O=C(CCc1ccccc1)*; Dab = NCC[C@H](N)C(=O)O
Outcome field: choose from True = active, False = inactive

COMPOUND	CATEGORY_LABEL
CC(C)C[C@H](NC(=O)[C@H](CCCNC(=N)N)NC(=O)[C@@H]1CCCN1C(=O)[C@H](CCCNC(=N)N)NC(=O)[C@H](Cc1ccccc1)NC(=O)[C@H](CC(C)C)NC(=O)CCc1ccccc1)C(N)=O (Hydrocinnamoyl-LFRPRL-NH2)	False
CC(C)C[C@H](NC(=O)CCc1ccccc1)C(=O)N[C@@H](Cc1ccccc1)C(=O)N[C@@H](CCCNC(=N)N)C(=O)N1CCC[C@H]1C(=O)N[C@@H](CCCNC(=N)N)C(=O)N[C@@H](CCN)C(N)=O (Hydrocinnamoyl-LFRPR[Dab]-NH2)	False
CC(C)C[C@H](NC(=O)CCc1ccccc1)C(=O)N[C@@H](Cc1ccccc1)C(=O)N[C@@H](CCCNC(=N)N)C(=O)N1CCC[C@H]1C(=O)N[C@@H](CCCNC(=N)N)C(=O)N[C@@H](C)C(N)=O (Hydrocinnamoyl-LFRPRA-NH2)	False
N=C(N)NCCC[C@H](NC(=O)[C@@H]1CCCN1C(=O)[C@H](CCCNC(=N)N)NC(=O)[C@H](Cc1ccccc1)NC(=O)[C@H](Cc1ccccc1)NC(=O)Cc1ccncc1)C(=O)N[C@@H](CC(N)=O)C(N)=O ({Acetyl(4-pyridyl)}-FFRPRN-NH2)	True

Now, please, on to the next compound.
Hi, sorry to bother you, what did the test record for N=C(N)NCCC[C@H](NC(=O)[C@@H]1CCCN1C(=O)[C@H](CCCNC(=N)N)NC(=O)[C@H](Cc1ccccc1)NC(=O)[C@H](Cc1cccc2ccccc12)NC(=O)CCc1cccnc1)C(=O)N[C@@H](CC(N)=O)C(N)=O ({Propanoyl(3-(3-pyridyl))}-[1Nal]FRPRN-NH2) ?
True

====

# TEST_SYSTEM: Neuromedin-U receptor 1 (Homo sapiens) (UniProt Q9HB89)
# Sequence (Q9HB89 whole entry): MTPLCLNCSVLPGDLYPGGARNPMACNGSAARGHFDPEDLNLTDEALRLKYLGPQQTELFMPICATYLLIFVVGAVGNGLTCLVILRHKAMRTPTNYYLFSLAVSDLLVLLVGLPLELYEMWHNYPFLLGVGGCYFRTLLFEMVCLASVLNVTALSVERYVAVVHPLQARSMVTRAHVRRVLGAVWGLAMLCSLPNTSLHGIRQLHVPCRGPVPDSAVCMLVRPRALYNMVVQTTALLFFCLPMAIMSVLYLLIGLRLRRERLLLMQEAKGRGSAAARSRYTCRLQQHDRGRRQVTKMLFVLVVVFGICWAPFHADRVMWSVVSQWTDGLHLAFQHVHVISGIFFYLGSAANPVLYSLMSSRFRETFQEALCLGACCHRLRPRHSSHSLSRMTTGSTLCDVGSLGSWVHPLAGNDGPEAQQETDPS
# ASSAY_METHOD_TEXT: Agonist activity at human NMUR1 expressed in HEK293 cells at 1 to 100 nM by calcium mobilization assay relative to NMU
# Format: functional, cell-based
Active and inactive are the calls of the source. No cut-off for these calls is given here. Where a SMILES comes first, the peptide text is derived from it. [ ]: non-standard residue; d: D form. The star is where a group is joined. Quinoline(6-carbonyl) = O=C(c1ccc2ncccc2c1)*; Acetyl(3-pyridyl) = O=C(Cc1cccnc1)*; Hydrocinnamoyl = O=C(CCc1ccccc1)*; hArg = N=C(N)NCCCC[C@H](N)C(=O)O; hPhe = N[C@@H](CCc1ccccc1)C(=O)O; Phg = N[C@H](C(=O)O)c1ccccc1; PhAc = O=C(Cc1ccccc1)*; X1 = O=C(Cn1ccnc1)*
Give one outcome, nothing more. List: 1 (active), 0 (inactive)

MOLECULE	CATEGORY_LABEL
CC(C)C[C@H](NC(=O)CCc1ccccc1)C(=O)N[C@@H](Cc1ccccc1)C(=O)N[C@@H](CCCCNC(=N)N)C(=O)N1CCC[C@H]1C(=O)N[C@@H](CCCNC(=N)N)C(=O)N[C@@H](CC(N)=O)C(N)=O (Hydrocinnamoyl-LF[hArg]PRN-NH2)	1

Assay result, entry N=C(N)NCCC[C@H](NC(=O)[C@@H]1CCCN1C(=O)[C@H](CCCNC(=N)N)NC(=O)[C@H](Cc1ccccc1)NC(=O)[C@H](Cc1ccccc1)NC(=O)Cc1cccnc1)C(=O)N[C@@H](CC(N)=O)C(N)=O ({Acetyl(3-pyridyl)}-FFRPRN-NH2) — outcome?
1

Kindly provide the recorded test outcome for the following molecule: N=C(N)NCCC[C@H](NC(=O)[C@@H]1CCCN1C(=O)[C@H](CCCNC(=N)N)NC(=O)[C@H](Cc1ccccc1)NC(=O)[C@H](Cc1ccccc1)NC(=O)c1ccc2ncccc2c1)C(=O)N[C@@H](CC(N)=O)C(N)=O ({Quinoline(6-carbonyl)}-FFRPRN-NH2)
0

Hi, sorry to bother you, what did the test record for N=C(N)NCCC[C@H](NC(=O)[C@@H]1CCCN1C(=O)[C@H](CCCNC(=N)N)NC(=O)[C@H](Cc1ccccc1)NC(=O)[C@H](Cc1ccccc1)NC(=O)Cn1ccnc1)C(=O)N[C@@H](CC(N)=O)C(N)=O (X1-FFRPRN-NH2) ?
1

Dear all, I need the recorded test outcome for CC(C)C[C@H](NC(=O)CCc1ccccc1)C(=O)N[C@@H](CCc1ccccc1)C(=O)N[C@@H](CCCNC(=N)N)C(=O)N1CCC[C@H]1C(=O)N[C@@H](CCCNC(=N)N)C(=O)N[C@@H](CC(N)=O)C(N)=O (Hydrocinnamoyl-L[hPhe]RPRN-NH2) , thank you.
0

What did the test return for CC(C)C[C@H](NC(=O)CCc1ccccc1)C(=O)N[C@H](C(=O)N[C@@H](CCCNC(=N)N)C(=O)N1CCC[C@H]1C(=O)N[C@@H](CCCNC(=N)N)C(=O)N[C@@H](CC(N)=O)C(N)=O)c1ccccc1 (Hydrocinnamoyl-L[Phg]RPRN-NH2) ?
0

Dear all, I need the recorded test outcome for CC(C)C[C@H](NC(=O)Cc1ccccc1)C(=O)N[C@@H](Cc1ccccc1)C(=O)N[C@@H](CCCNC(=N)N)C(=O)N1CCC[C@H]1C(=O)N[C@@H](CCCNC(=N)N)C(=O)N[C@@H](CC(N)=O)C(N)=O (PhAc-LFRPRN-NH2) , thank you.
1

====

# TEST_SYSTEM: Neuromedin-U receptor 2 (Homo sapiens)
# ASSAY_METHOD_TEXT: Agonist activity at human NMUR2 expressed in HEK293 cells at 1 to 100 nM by calcium mobilization assay relative to NMU
# Assay type: functional, cell-based
Calls of active or inactive are those of the source. The calls are words filed in the database; no cut-off is given here. Where a SMILES comes first, the peptide text is derived from it. [ ]: non-standard residue; d: D form. The star is where a group is joined. Hydrocinnamoyl = O=C(CCc1ccccc1)*; hArg = N=C(N)NCCCC[C@H](N)C(=O)O; Cha = N[C@@H](CC1CCCCC1)C(=O)O

COMPOUND	Activity
CC(C)C[C@H](NC(=O)CCc1ccccc1)C(=O)N[C@@H](Cc1ccccc1)C(=O)N[C@@H](CCCCNC(=N)N)C(=O)N1CCC[C@H]1C(=O)N[C@@H](CCCNC(=N)N)C(=O)N[C@@H](CC(N)=O)C(N)=O (Hydrocinnamoyl-LF[hArg]PRN-NH2)	Active
CC(C)C[C@H](NC(=O)CCc1ccccc1)C(=O)N[C@@H](CC1CCCCC1)C(=O)N[C@@H](CCCNC(=N)N)C(=O)N1CCC[C@H]1C(=O)N[C@@H](CCCNC(=N)N)C(=O)N[C@@H](CC(N)=O)C(N)=O (Hydrocinnamoyl-L[Cha]RPRN-NH2)	Active
